molecular target: SARS-CoV-2 spike receptor binding domain (RBD), Avi-tagged and biotinylated (SARS-CoV-2, UniProt P0DTC2 319-541, biotin (Avi tag, by BirA)); assay: ELISA
Provide the recorded pIC50 for the entries that follow.
Numbers only, as −log10 of the molar value.

REGN10933 Ig-TD (antibody, V domains shown) VH: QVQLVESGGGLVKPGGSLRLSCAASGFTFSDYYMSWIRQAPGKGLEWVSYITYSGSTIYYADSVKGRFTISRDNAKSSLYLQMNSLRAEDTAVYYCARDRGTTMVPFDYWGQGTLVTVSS VL: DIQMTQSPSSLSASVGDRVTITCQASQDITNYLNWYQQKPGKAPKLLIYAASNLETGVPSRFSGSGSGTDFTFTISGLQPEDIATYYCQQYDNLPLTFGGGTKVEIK	10.35

IN: Sample REGN10987 mIg-TD (antibody, V domains shown) VH: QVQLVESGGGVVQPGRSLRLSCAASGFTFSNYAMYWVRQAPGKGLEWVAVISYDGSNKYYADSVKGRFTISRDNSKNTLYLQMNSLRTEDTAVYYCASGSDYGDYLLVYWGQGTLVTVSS VL: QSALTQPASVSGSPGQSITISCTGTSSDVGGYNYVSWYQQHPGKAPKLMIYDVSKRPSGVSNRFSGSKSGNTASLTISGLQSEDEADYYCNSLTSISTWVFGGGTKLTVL — what was its pIC50?
OUT: 9.40
